assay: qHTS Assay for Foot and Mouth Disease Virus Antivirals: Primary Screen against the MLPCN compound library; settings: FMDV antiviral cell-based qHTS; series mostly up to 57.9 µM; also: nearly all actives have a fitted effect of over 55% in size
The campaign covered roughly 410,000 compounds. About 2,000 (0.49%) were called active. Not shown: some 8% with an inconclusive outcome. Calls follow the shape of the full dose curve; tested in HEK293 reporter line. What follows is part of a selection rich in actives, with near analogues and random picks from the rest.
Write down the outcome that applies. Available outcomes: active, inactive

Below, 4 molecules whose answers are already recorded.
COc1ccc(C(=O)Nc2nc3ccccc3s2)c(OC)c1; inactive
O=C(c1ccc2c(c1)N(Cc1ccccc1F)C(=O)c1ccccc1S2=O)N1CCN(c2ccccc2)CC1 (stereo not drawn); inactive
COc1ccccc1N1CCN(c2nc(CNC(=O)c3sc(C)nc3C)nc3ccccc23)CC1; inactive
Cc1cccc(NC(=O)CSc2nnc(NC(=O)CN3CCOCC3)s2)c1; inactive

Name the outcome recorded for "CSc1nc(Nc2ccc(C)cc2C)cc(-c2ccccc2)n1" in the assay.
inactive

Name the outcome recorded for "COc1ccc2[nH]cc(CCNc3ccnc(-c4cccnc4)n3)c2c1" in the assay.
inactive
